Assay: Metabolite profiling and identification in human hepatocytes
Assay type: in vitro ADME
Conditions: relative abundance among metabolites of the parent (1 μM), human hepatocytes, 1 hr, equal LC/MS sensitivity assumed
Entries whose Percent Distribution (1 hr incubation) Human is below 20% take fulfilled; entries at or above 20% take not fulfilled.

| Compound smiles | Answer label |
| --- | --- |
| CC(=O)NC(CO)(CO)CCc1ccc(CC(=O)O)cc1 | fulfilled |
| CC(=O)NC(CO)(CO)CCc1ccc(CCCC(=O)O)cc1 | not fulfilled |
| O=C(O)CCCCCc1ccc(CCC(CO)(CO)NC(=O)CC[P+](c2ccccc2)(c2ccccc2)c2ccccc2)cc1 | not fulfilled |

Inquiry: Please check: Percent Distribution (1 hr incubation) Human for CC(=O)NC(CO)(CO)CCc1ccc(CCCCCCCC(=O)O)cc1 , strictly under 20% or not?
Reply text: not fulfilled
